Entry source: patent US20070054908A1

tested on: mouse endothelial cells, prostate; assay: MTT cytotoxicity assay, prostate endothelial cells; format: cell-based; settings: Endothelial cell
Endpoint: IC50 (µM)
Numbers only, in µM.

Given COc1ccc(C(=O)c2cc([N+](=O)O)ccc2N2CCCCC2)cc1 (racemic) , state its recorded IC50.
0.051

----------
System: TRAMP (prostate)
Test: MTT cytotoxicity assay, TRAMP
Assay type: cell-based
Conditions: mouse cells
Procedure: To evaluate the cytotoxic activity of the two compounds, human prostate cancer cells (PC-3, LNCaP, and DU145) were plated into 96-well plate and incubated for 96 hr with various concentrations of desired drugs. […]
Endpoint: IC50 (µM)
Numbers only, in µM.

Given COc1ccc(C(=O)c2cc([N+](=O)O)ccc2N2CCCCC2)cc1 (racemic) , state its recorded IC50.
0.041

----------
test system: DU145 (p53, mt); assay: MTT cytotoxicity assay, DU145; format: cell-based; details: Homo sapiens, DU-145, 96 hr
Endpoint: pIC50
Numbers only, as −log10 of the molar value.

Compound	Observed
COc1ccc(C(=O)c2cc([N+](=O)O)ccc2N2CCOCC2)cc1 (racemic)	7.52

Quick one: give me pIC50 for each item below, same order please.
1. COc1ccc(C(=O)c2cc([N+](=O)O)ccc2N2CCCCC2)cc1 (racemic)
2. CC[C@]1(O)C[C@H]2CN(CCc3c([nH]c4ccccc34)[C@@](C(=O)OC)(c3cc4c(cc3OC)N(C=O)[C@H]3[C@@](O)(C(=O)OC)[C@H](OC(C)=O)[C@]5(CC)C=CCN6CC[C@]43[C@@H]65)C2)C1
3. CC(=O)O[C@H]1C(=O)[C@@]2(C)[C@H]([C@H](OC(=O)c3ccccc3)[C@]3(O)C[C@H](OC(=O)[C@H](O)[C@@H](NC(=O)c4ccccc4)c4ccccc4)C(C)=C1C3(C)C)[C@]1(OC(C)=O)CO[C@@H]1C[C@@H]2O

[7.55, 8.30, 8.52]

----------
tested on: CT-26 (colon, MDR); assay: MTT cytotoxicity assay, CT-26 MDR; format: cell-based; details: Mus musculus, CT26, multidrug resistant
Endpoint: IC50 (µM)
One number for each entry, in µM.

Recorded results for 2 compounds are shown here.
Compound	Assayed target	Endpoint unit	IC50
CC(=O)O[C@H]1C(=O)[C@@]2(C)[C@H]([C@H](OC(=O)c3ccccc3)[C@]3(O)C[C@H](OC(=O)[C@H](O)[C@@H](NC(=O)c4ccccc4)c4ccccc4)C(C)=C1C3(C)C)[C@]1(OC(C)=O)CO[C@@H]1C[C@@H]2O [Taxol]	CT-26 (colon, MDR)	µM	0.367
COc1ccc(C(=O)c2cc([N+](=O)O)ccc2N2CCCCC2)cc1 (racemic) [DL-001]	CT-26 (colon, MDR)	µM	0.039

--- query ---
IC50 of CC[C@]1(O)C[C@H]2CN(CCc3c([nH]c4ccccc34)[C@@](C(=O)OC)(c3cc4c(cc3OC)N(C=O)[C@H]3[C@@](O)(C(=O)OC)[C@H](OC(C)=O)[C@]5(CC)C=CCN6CC[C@]43[C@@H]65)C2)C1 [Vincristine, vincristine] on CT-26 (colon, MDR)?
0.038

----------
test system: A375 (p53, wt); test: MTT cytotoxicity assay, A375; assay type: cell-based; conditions: Homo sapiens, A-375
Endpoint: IC50 (nM)
Numbers only, in nM.

Given COc1ccc(C(=O)c2cc([N+](=O)O)ccc2N2CCCCC2)cc1 (racemic) , state its recorded IC50.
23
